# Test system: SN12C renal
# assay_procedure: NCI-60 one-dose screen, 48 h (100 = growth as untreated, 0 = no growth, -100 = all killed)
# assay_setup: 10 µM unless noted
This is part of a sample that, as a whole, favours compounds with a hit. Of some 83,000 tested, about 20% had one in any assay. Calls of active or inactive are those of the source. The calls were made as follows: active = growth percent below 10; inactive = the rest.
Entries and their growth

Reference set (4 entries):
* O=c1c2cccc(F)c2sc2c(N3CCNCC3)nc3ccccc3c12 | 46.5% (inactive)
* CCN1C(=O)N(c2ccccc2)C2Nn3c(s/c(=C4\C(=O)N(C(C)C)c5ccccc54)c3=O)=NC21 (stereo not given) | 102% (inactive)
* COC(=O)c1c2c(c(C)[n+]([O-])c1C)C(=O)C=C(NCc1ccc(F)c(F)c1)C2=O | -93.7% (active)
* Cc1cc2c(c(C)c1Cl)C(=O)/C(=C/c1ccco1)O2 | 96% (inactive)

Now for another entry.
Give reported growth value for O=C(NC1C(O)OC(CO)C(O)C1O)NS(=O)(=O)c1ccc(Cl)cc1 (stereo not given) 98.1% (inactive)
